target: CYP2C9 (Homo sapiens, UniProt P11712); test: in vitro; details: recombinant enzyme
Sequence (P11712 whole entry): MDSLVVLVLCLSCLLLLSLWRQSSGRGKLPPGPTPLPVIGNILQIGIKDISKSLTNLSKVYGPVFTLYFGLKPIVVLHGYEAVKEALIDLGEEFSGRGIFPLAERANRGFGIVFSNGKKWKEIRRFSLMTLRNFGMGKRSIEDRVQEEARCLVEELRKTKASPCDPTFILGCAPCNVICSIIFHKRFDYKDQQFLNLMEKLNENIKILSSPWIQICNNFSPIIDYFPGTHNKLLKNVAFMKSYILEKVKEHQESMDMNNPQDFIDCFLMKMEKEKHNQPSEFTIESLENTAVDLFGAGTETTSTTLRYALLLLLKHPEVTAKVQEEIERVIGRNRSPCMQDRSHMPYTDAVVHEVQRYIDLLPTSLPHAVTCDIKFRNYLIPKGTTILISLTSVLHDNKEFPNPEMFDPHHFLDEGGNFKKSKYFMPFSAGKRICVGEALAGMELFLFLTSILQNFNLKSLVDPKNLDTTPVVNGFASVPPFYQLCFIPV
// inhibition at 30 min, 10 µM lookup, one value per entry
Number only, in %; omit the unit.

# SMILES_ENTRY, TARGET_DESC, MEASUREMENT_LABEL, RESULT_VALUE
records = [
    ("COc1cc2ccc(=O)oc2cc1OC", "CYP2C9 (Homo sapiens, UniProt P11712)", "inhibition at 30 min, 10 µM", 0),
]

// query Could you share which inhibition at 30 min, 10 µM value was measured for COc1cc2ccc(=O)oc2c(OC)c1OC ?
// result 0

====

test system: HCl/ethanol-induced gastric ulcers; experiment: HCl/ethanol-induced gastritis in rats; type: in vivo, Sprague-Dawley (S.D.) rats; settings: Rattus norvegicus; oral, dose-response, HCl/ethanol-induced GU, rats; read-out: ED50 (50% protection against GU)
MEASUREMENT_LABEL: ED50

Field: example entries. Status: answers known.
# MOLECULE, MEASUREMENT_LABEL, RESULT_VALUE
measured = [
    ("COc1cc2ccc(=O)oc2c(OC)c1OC", "ED50", "2.93 mg/kg"),
    ("COc1cc2oc(=O)ccc2c(OC)c1OC", "ED50", "3.94 mg/kg"),
    ("O=C(NC(Cc1cc(=O)[nH]c2ccccc12)C(=O)O)c1ccc(Cl)cc1 (stereo not shown) [Rebamipide, reference compound]", "ED50", "9.53 mg/kg"),
]

Would you kindly look at the next entry?
// query Could you share which ED50 value was measured for COc1cc2ccc(=O)oc2cc1OC ?
// result 4.21 mg/kg

====

Target: UniProt P08684
Sequence (P08684 whole entry): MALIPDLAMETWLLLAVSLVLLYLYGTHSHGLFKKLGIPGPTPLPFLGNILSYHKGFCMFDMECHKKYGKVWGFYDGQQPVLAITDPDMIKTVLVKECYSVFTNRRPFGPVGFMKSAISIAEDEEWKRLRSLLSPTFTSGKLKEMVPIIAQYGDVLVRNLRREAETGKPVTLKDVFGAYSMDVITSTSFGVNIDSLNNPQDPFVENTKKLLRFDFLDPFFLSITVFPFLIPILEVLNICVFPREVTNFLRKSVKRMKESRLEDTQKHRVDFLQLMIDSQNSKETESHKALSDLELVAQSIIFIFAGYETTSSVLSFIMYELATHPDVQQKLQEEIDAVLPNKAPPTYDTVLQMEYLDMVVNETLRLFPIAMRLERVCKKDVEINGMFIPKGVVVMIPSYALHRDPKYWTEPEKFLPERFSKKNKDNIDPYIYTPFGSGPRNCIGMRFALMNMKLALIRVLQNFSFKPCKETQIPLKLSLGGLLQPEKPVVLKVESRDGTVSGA
Assay: in vitro
Conditions: recombinant enzyme
Procedure: The inhibition assays for human cytochrome P450 (CYP) enzyme activities were performed in multiwall plates using CYP2C9 and CYP3A4 screening kits (Invitrogen Co., Carlsbad, CA, USA) according to the manufacturer’s instruction. […] CYP activity was evaluated by measuring the fluorescence of the fluorescent metabolite generated from each CYP enzyme-specific substrate. The fluorescence was measured using a fluorescent plate reader at 409 nm (excitation) and 460 nm (emission). […]
MEASUREMENT_LABEL: inhibition at 30 min, 20 µM (%)
Number only, in %; omit the unit.

# COMPOUND, inhibition at 30 min, 20 µM / %
measured = [
    ("CC(=O)N1CCN(c2ccc(OCC3COC(Cn4ccnc4)(c4ccc(Cl)cc4Cl)O3)cc2)CC1 (centres unmarked) [Ketoconazole, reference compound]", 97.5),
]

Would you kindly look at the next entry?
// query Could you share which inhibition at 30 min, 20 µM value was measured for Nc1ccc(S(=O)(=O)Nc2ccnn2-c2ccccc2)cc1 [Sulfaphenazole, reference compound] ?
// result 0
